System: human keratinocytes
protocol: Neutral red incorporation test: cytotoxicity of cadmium chloride on human keratinocytes in culture, with or without protecting agent
Format: cell-based
condition.summary: CdCl2 alone, 24 hours, human keratinocytes, neutral red, concentration giving 50% drop in cell viability; read-out: IC.50 of cadmium chloride without protecting agent (Mean ± SEM)
metric: pIC50
Value format note: pIC50 is -log10 of concentration (mol/L); just state the number.

Query: May I ask what pIC50 has been recorded for [Cl][Cd][Cl] [cadmium chloride, reference compound] ?
Response: 4.41
